# Species on record: Bos taurus
# assay.method.text: Induction of bovine brain alpha-tubulin assembly assessed as prevention of temperature-induced microtubule disassembly at 60 uM at 4 degC by absorption spectrophotometric analysis relative to control
Activity calls are given as the source filed them. No cut-off for these calls is given here.
recorded.metric: Activity

| compound.structure.string | recorded.metric | value |
| --- | --- | --- |
| O=C(N[C@H]1c2ccccc2OC/C=C/COc2cccc3c2[C@H](OC(=O)c2ccccc2)[C@@H]2C[C@@H](CN2C3)OC(=O)[C@@H]1O)c1ccccc1 | Activity | Active |
| C=CCCOc1ccccc1[C@H](NC(=O)c1ccccc1)[C@@H](O)C(=O)O[C@H]1C[C@H]2[C@@H](OC(=O)c3ccccc3)c3c(cccc3OCC=C)CN2C1 | Activity | Active |
| C=CCOc1ccccc1[C@H](NC(=O)c1ccccc1)[C@@H](O)C(=O)O[C@H]1C[C@H]2[C@@H](OC(=O)c3ccccc3)c3c(cccc3OCC=C)CN2C1 | Activity | Active |
| O=C(N[C@H]1c2ccccc2OCC/C=C/COc2cccc3c2[C@H](OC(=O)c2ccccc2)[C@@H]2C[C@@H](CN2C3)OC(=O)[C@@H]1O)c1ccccc1 | Activity | Active |
| C=CCOc1cccc2c1[C@@H](OC(=O)c1ccccc1)[C@@H]1C[C@H](OC(=O)[C@H](O)[C@@H](NC(=O)c3ccccc3)c3ccccc3CC=C)CN1C2 | Activity | Active |
| O=C(N[C@H]1c2ccccc2C/C=C/COc2cccc3c2[C@H](OC(=O)c2ccccc2)[C@@H]2C[C@@H](CN2C3)OC(=O)[C@@H]1O)c1ccccc1 | Activity | Active |

IN: What does the data say about its Activity? Entry: O=C(N[C@H]1c2ccccc2C/C=C/COc2cccc3c2[C@@H](OC(=O)c2ccccc2)[C@@H]2C[C@@H](CN2C3)OC(=O)[C@@H]1O)c1ccccc1
OUT: Active

IN: I would be grateful if you could share the reported Activity for C=CCOc1cccc2c1[C@H](OC(=O)c1ccccc1)[C@@H]1C[C@H](OC(=O)[C@H](O)[C@@H](NC(=O)c3ccccc3)c3ccccc3CC=C)CN1C2 .
OUT: Active
